src = ChEMBL document CHEMBL5506057

Parameter: logD at 2 h. Scope: all listed entries.
# experiment: Lipophilicity, logD of compound in octanol and aqueous buffer at pH 7.4 incubated for 2 hrs by shake-flask method based LC-MS/MS analysis
# Format: physicochemical
Returns: the value as a bare number; no unit string appended.

Below: 5 compounds and their reported logD at 2 h.
smiles_data=Fc1ccccc1COc1cccc(-c2n[nH]cc2-c2ccncn2)c1 experimental_readout="logD at 2 h" result_value=3.5
smiles_data=C=CC(=O)Nc1ccc(OC)c(Nc2nccc(-c3c[nH]nc3-c3cccc(OC)c3)n2)c1 experimental_readout="logD at 2 h" result_value=4.1
smiles_data=C=CC(=O)N1C[C@@H](n2cc(-c3ccncc3)c(-c3cccc(OCc4ccc5c(c4)CN(C)C5=O)c3)n2)C[C@@H]1C experimental_readout="logD at 2 h" result_value=3
smiles_data=C#CC(=O)NCCn1cc(-c2ncnc3cc(OC)c(OC)cc23)c(-c2cccc(OC)c2)n1 experimental_readout="logD at 2 h" result_value=2.1
smiles_data=C=CC(=O)N1CC[C@H](n2cc(-c3ccncc3)c(-c3cc(F)cc(OCc4ccc5c(c4)CN(C)C5=O)c3)n2)C1 experimental_readout="logD at 2 h" result_value=3.3

Ask: I'd like to know its logD at 2 h. The compound in question is C=CC(=O)N1C[C@@H](n2cc(-c3ccncc3)c(-c3ccc(F)c(COc4ccc5c(c4)CN(C)C5=O)c3)n2)C[C@H]1C
Reply: 3.6

Ask: Now the same for C=CC(=O)N1C[C@@H](n2cc(-c3ccncc3)c(-c3cccc(OCc4ccc5c(c4)CN(C)C5=O)c3)n2)C[C@H]1C
Reply: 3.2

Ask: Would you kindly repeat that for C=CC(=O)N1CC[C@H](n2cc(-c3ncnc4cc(OC)c(OC)cc34)c(-c3cccc(OC)c3)n2)C1 ?
Reply: 2.4

Ask: Okay, and CN1Cc2cc(COc3cccc(-c4n[nH]cc4-c4ccncc4)c3)ccc2C1=O ?
Reply: 3.1

Ask: Also C=CS(=O)(=O)NCCn1cc(-c2ncnc3cc(OC)c(OC)cc23)c(-c2cccc(OC)c2)n1 , if possible.
Reply: 2.2
